Here the recorded kon is given for each entry.
- measured.on: T1, cynomolgus monkey (cyno) TSLP (cynomolgus monkey, UniProt A0A7N9CAT7 29-159)
- T1 construct: also called cTSLP; cynomolgus TSLP
- assay.details: SPR

{"columns": ["binder", "measured.quantity", "assay.result"],
 "data": [
  ["BDG38.140 (antibody, V domains shown, IgG1) VH: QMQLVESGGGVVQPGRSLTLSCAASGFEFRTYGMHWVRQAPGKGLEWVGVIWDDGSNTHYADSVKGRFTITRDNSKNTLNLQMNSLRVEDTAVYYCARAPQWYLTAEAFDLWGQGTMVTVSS VL: SYILTQPPSVSVAPGETATITCGGNLIGAKLVHWYQQKPGQAPVLVIYDDSDRPSRIPERFSGSNIGNTATLTIEDVEAGDEADYYCQVWDYSANHMVFGGGTKLTVL", "kon", "4.53e+06 M⁻¹ s⁻¹"]
]}

# binder BDG38.125 (antibody, V domains shown, IgG1) VH: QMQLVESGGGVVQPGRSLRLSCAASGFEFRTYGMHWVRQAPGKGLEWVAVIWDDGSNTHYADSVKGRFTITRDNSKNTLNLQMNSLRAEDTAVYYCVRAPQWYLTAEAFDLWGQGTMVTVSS VL: SYVLTQPPSVSVAPGETATITCGGNLIGARLVHWYQQKPGQAPVLVIYDDSDRPSRIPERFSGSNIGNTATLTIERVEEGDEADYYCQVWDYSSDHMVFGGGTKLTVL ; its kon = 2.64e+06 M⁻¹ s⁻¹
